From: patent US10905750B2

Tested on: mouse breast cancer cells, 4T1
assay.name: WST-8 proliferation assay, 4T1 (5 day)
Format: cell-based
condition.info: 120 h, GRP78 10 ug/ml, 5 days, read-out: Proliferation Inhibition (5 day) IC50, Mouse Breast Cancer 4T1
pIC50: −log10 of the molar value.

smi | pIC50
COc1cccc2c1C(=O)c1c(O)c3c(c(O)c1C2=O)C[C@@](O)(C(=O)CO)C[C@@H]3O[C@H]1C[C@H](N)[C@H](O)[C@H](C)O1 | 8.15
